- assay target: Glucocorticoid receptor (GR) (Homo sapiens)
- Construct: host or cells: MMTV-bla HeLa CELLSENSOR
- Sequence (P04150 whole entry): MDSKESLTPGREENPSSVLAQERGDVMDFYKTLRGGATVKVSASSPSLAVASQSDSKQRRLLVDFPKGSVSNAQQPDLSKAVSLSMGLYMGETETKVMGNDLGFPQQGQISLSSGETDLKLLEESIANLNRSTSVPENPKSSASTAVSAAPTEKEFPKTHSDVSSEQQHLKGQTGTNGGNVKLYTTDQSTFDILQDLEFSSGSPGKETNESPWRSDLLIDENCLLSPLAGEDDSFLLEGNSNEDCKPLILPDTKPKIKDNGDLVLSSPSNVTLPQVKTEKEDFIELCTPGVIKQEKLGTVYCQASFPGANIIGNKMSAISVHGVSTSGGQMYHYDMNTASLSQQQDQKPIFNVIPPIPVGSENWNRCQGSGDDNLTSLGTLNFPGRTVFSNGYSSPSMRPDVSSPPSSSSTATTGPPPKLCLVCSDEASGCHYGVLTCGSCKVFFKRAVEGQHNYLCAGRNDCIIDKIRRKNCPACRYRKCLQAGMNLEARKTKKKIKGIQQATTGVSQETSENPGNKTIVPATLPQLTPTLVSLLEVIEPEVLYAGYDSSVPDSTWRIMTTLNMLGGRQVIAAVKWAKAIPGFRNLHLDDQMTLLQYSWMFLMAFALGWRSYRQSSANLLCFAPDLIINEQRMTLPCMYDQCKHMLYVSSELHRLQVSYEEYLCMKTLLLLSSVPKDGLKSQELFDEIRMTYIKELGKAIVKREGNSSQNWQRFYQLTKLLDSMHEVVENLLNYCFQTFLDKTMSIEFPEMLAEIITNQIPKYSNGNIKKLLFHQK
- test protocol: Glucocorticoid receptor transactivation, MMTV-bla HeLa CELLSENSOR β-lactamase reporter, agonist mode
- Format: cell-based
- conditions used: MMTV-bla HeLa, agonist mode, 5 hours incubation, max concentration 100 nM, one experiment in duplicate
endpoint: EC50

query: Supply reported EC50 belonging to this molecule: C[C@]12CCC(=O)C=C1CC[C@@H]1[C@@H]2[C@@H](O)C[C@@]2(C)[C@H]1CC[C@]2(OC(=O)CCS(=O)(=O)c1ccccc1)C(=O)CO [drawing 14]
result: > 100 nM
